The origin of these recorded values is patent US6416998B1.

- TARGET DESC: wild type receptor (hPR-B) (Homo sapiens, UniProt P06401)
- Construct: expressed in transfected cells; host or cells: Saccharomyces cerevisiae BJ3505 transformed with YEphPR-B
- Sequence (P06401 1-933): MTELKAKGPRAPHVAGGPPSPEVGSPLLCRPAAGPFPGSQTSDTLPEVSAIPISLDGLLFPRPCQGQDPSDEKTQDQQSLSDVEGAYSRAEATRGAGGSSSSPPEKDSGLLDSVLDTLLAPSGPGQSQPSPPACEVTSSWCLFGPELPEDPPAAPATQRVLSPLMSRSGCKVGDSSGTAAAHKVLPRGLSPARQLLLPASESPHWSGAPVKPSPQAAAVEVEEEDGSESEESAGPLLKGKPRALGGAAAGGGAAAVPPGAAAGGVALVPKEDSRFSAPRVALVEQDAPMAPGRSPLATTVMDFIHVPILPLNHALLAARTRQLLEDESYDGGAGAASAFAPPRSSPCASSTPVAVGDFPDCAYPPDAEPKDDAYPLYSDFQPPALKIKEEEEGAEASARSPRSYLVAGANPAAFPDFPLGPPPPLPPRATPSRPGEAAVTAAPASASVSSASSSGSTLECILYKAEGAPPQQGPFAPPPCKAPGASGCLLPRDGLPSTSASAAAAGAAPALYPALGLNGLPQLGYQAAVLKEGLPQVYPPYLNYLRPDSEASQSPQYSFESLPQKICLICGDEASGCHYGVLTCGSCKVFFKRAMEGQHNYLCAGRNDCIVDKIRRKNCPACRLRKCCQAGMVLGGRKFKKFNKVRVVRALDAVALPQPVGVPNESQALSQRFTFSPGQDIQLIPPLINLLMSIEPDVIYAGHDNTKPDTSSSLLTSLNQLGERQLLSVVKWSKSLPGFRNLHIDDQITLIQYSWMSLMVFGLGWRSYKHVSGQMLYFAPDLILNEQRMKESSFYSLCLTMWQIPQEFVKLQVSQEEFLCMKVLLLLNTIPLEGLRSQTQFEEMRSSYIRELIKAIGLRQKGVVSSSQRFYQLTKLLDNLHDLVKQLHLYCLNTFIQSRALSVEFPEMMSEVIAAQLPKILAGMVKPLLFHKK
- ASSAY REMARKS: Yeast transcription assay (β-galactosidase activity)
- Format: cell-based, yeast (Saccharomyces cerevisiae)
- SETTINGS: 1 μM, 4 hours
REPORTED METRIC: transcriptional activity (in words)

QUERY SMILES	VALUE OBSERVED
C[C@]12CCC(=O)C=C1CC[C@@H]1[C@@H]2[C@@H](O)C[C@@]2(C)[C@H]1CC[C@]2(O)C(=O)CO	inactive
C[C@]12CC[C@@H]3c4ccc(O)cc4CC[C@H]3[C@@H]1CC[C@@H]2O	inactive
COc1ccc2c(c1)CCC(c1ccccc1)=C2c1ccc(OCCN2CCCC2)cc1	inactive
C[C@@H]1C[C@H]2[C@@H]3CCC4=CC(=O)C=C[C@]4(C)[C@@]3(F)[C@@H](O)C[C@]2(C)[C@@]1(O)C(=O)CO	inactive
